Would you mind telling me the reported apparent KD of MS2 coat protein of each entry?
test system: MS2 coat protein; test: apparent KD of MS2 coat protein; higher = weaker reporter binding; settings: Eterna round: R107; input ligand: arginine 13.2 mM
Numbers only, in nM.

// lookup apparent KD of MS2 coat protein for UCGUGUGUUUCGGAUACCAGUGAAAUCGAUACAUGAGGAUCACCCAUGUGAGAGGAUGUACACCCUUGGCAGCUGUCUGUAUCGG [asczmullin] 40.6

// lookup apparent KD of MS2 coat protein for UAGAGCCAGUCGGCCGCCACUCUCCAUAUGUGAGCCUUUAAGUUCUACAUGAGGAUCACCCAUGUGAGGACCGGGACCGAAUCUA [theeternabot_exclusion_MS2_Trp_B_18] 39.7

// lookup apparent KD of MS2 coat protein for AGCCACUCGAGUGAUCCUCACGAGUGGCUACGAGGACCGGUACGGCCGCCACUCGAAUCAACAUGAGGAUCACCCAUGUAAUAAU [Brourdmod02] 20.5

Dear colleague, could you please provide apparent KD of MS2 coat protein for the sequences listed below?
1. UGUACCAUGUCGGCCGCCACUCAUGAUAAAUAUGAGGAUCACCCAUAUAGCGUCAAAGACGCUAUGAGGACCGGGACAUGGUACU [TryBS Zipper 2]
2. GGAUAGGACACGGCCGCCACUAGCUAGGAUACUAGCAACAUUUCCUCACCUGAGGAUCACCCUGGUAGGACCGGGUGUCCUAUCG
3. UGCCGAGACGUGGAUUACCCGUGUACCGAAGGAGCGCCCGAAAGGGCAGGUAGGUCGCGGAGGACAUGAGGAUCACCCAUGUUGA
4. GAAGGAGAGUGAUCCACUCCUUCUCUGGAAGGAGCGAGCGAAAGCUCAGGUAGGUCGCCAGAAACAUGAGGAUCACCCAUGUAAU [(A)''-(M)'-(A)'-(Arg1)-(Arg2)-(M1)-(M2)_Design7]
5. GCUACAUGAGGAUCACCCAUGUGUACUGAAGGAGCGGCGGAAACGCCAGGUAGGUCGCAGUAUGUGGCUCUGGGCACGAGAUGGC [SSAA NP+V+V2 #1]

1: 40.8; 2: 134; 3: 32.8; 4: 61.2; 5: 20.1

Dear colleague, could you please provide apparent KD of MS2 coat protein for the sequences listed below?
1. AUAACAUGAGGAUCACCCAUGUAAGCAGAUACCAGCUAGGAAACUAGCCCUUGGCAGCUGCAUUCCUCAUGUAGGUAUCUGCUAA [(M1)-(M2)-(T1)-(T2)-(M)'-(T)'_Design4]
2. CAGUCAGUCAGUCAAUGAGUGAGGCAUGAAGGAGCGUGGGAAACCACAGGUAGGUCGCAUGCGAAACAUGAGGAUCACCCAUGUU [SSArg A #3]
3. GGGUAUGAUCCGGAUACCAGCGAACAUGAGGAUCACCCAUGUGACCUAAGAUAGGCUCUACGCCCUUGGCAGCCGCGAUCGCAGA [Same State Theophylline B GF9]

[18.4, 29.4, 20.4]

Every entry's value here was drawn from the supplement of paper PMC9170038.
